Target: Monoglyceride lipase (Homo sapiens) (UniProt Q99685)
Sequence (Q99685 whole entry): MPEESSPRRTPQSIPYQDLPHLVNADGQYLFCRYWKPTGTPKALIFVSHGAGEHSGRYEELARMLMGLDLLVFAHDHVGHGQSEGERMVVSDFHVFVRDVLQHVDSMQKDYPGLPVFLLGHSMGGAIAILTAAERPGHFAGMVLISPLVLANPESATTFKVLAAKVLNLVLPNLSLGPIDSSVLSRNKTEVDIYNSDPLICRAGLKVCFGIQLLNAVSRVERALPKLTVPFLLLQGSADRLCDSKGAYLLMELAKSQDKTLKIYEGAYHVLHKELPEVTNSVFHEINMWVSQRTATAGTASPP
Experiment: Inhibition of human recombinant MAGL overexpressed in HEK cells using 2-AG as substrate at 10 uM preincubated for 10 mins before substrate addition measured after 10 mins by HPLC analysis relative to control
Type: cell-based
Settings: HEK293
Calls of active or inactive are those of the source. The rule behind the calls is not given here.
measurement type: inhibition

Sample records with inhibition:
COc1nn(C(C)c2ccc(-c3ccccc3)cc2)c(=O)o1 (racemic): 34%
COc1nn([C@@H](C)c2ccc(N(c3ccccc3)c3ccccc3)cc2)c(=O)o1: 41%
COc1nn([C@@H](C)c2ccc(CC(C)C)cc2)c(=O)o1: 16%
COc1nn(C2CCCCC2)c(=O)o1: inactive
COc1nn(C(C)c2cccc(Oc3ccccc3)c2)c(=O)o1 (stereo unspecified): 14%

input: Report inhibition for COc1nn(Cc2cccc(-c3ccccc3)c2)c(=O)o1 tested on Monoglyceride lipase (Homo sapiens) (UniProt Q99685).
output: 32%

input: Cool, now COc1nn([C@H](C)c2ccc(-c3ccccc3)cc2)c(=O)o1
output: 49%

###

Molecular target: Lysophosphatidylserine lipase ABHD12 (Homo sapiens) (UniProt Q8N2K0)
Sequence (whole entry): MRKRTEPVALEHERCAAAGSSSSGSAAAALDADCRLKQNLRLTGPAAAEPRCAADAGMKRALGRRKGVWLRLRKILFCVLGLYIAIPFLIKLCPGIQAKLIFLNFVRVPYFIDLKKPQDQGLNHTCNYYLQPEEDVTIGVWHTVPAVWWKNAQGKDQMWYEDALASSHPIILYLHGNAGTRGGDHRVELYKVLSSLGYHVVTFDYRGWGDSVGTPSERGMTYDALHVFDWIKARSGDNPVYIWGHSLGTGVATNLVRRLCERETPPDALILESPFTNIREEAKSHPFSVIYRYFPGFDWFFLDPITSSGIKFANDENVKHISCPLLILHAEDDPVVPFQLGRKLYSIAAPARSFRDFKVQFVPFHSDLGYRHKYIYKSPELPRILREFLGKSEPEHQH
Assay: Inhibition of human ABHD12 overexpressed in HEK293 cells assessed as 2-AG hydrolysis at 1 uM by fluorescent glycerol assay
Assay type: cell-based
Activity calls are given as the source filed them. No cut-off for these calls is given here.
measurement type: inhibition

COc1nn(C(C)c2ccc(CC(C)C)cc2)c(=O)o1 (racemic): inactive
COc1nn(C(C)c2ccc(-c3ccccc3)cc2)c(=O)o1 (racemic): inactive
COc1nn(Cc2ccccc2Oc2ccccc2)c(=O)o1: inactive
COc1nn([C@H](C)c2ccc(N(c3ccccc3)c3ccccc3)cc2)c(=O)o1: inactive
COc1nn(Cc2ccc(-c3ccccc3)cc2)c(=O)o1: inactive
COc1nn([C@@H](C)c2ccc(-c3ccccc3)cc2)c(=O)o1: inactive
COc1nn(Cc2cccc(-c3ccccc3)c2)c(=O)o1: inactive
COc1nn([C@@H](C)c2ccc(CC(C)C)cc2)c(=O)o1: inactive
COc1nn([C@H](C)c2ccc(CC(C)C)cc2)c(=O)o1: inactive
COc1nn(C(C)C)c(=O)o1: inactive

input: What measured inhibition goes with COc1nn(Cc2ccc(CC(C)C)cc2)c(=O)o1 ?
output: inactive

input: Cool, now COc1nn(C(c2ccccc2)c2ccccc2)c(=O)o1
output: inactive

###

Biological target: Fatty-acid amide hydrolase 1 (Rattus norvegicus, UniProt P97612)
Sequence (P97612 whole entry): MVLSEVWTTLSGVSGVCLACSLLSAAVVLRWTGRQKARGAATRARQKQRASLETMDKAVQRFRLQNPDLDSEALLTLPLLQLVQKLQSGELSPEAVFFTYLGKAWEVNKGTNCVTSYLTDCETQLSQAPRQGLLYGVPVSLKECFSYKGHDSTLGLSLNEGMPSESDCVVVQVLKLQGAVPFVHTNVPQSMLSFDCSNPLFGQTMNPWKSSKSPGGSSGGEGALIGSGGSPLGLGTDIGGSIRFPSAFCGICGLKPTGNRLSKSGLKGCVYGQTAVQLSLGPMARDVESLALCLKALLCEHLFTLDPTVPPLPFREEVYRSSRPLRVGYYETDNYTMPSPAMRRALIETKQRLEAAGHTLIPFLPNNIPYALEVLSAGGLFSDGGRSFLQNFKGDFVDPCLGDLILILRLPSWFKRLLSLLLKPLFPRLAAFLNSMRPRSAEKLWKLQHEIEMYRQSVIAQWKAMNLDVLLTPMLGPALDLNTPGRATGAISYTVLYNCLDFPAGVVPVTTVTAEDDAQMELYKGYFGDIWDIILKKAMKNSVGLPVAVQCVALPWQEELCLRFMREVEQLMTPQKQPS
Test: Inhibition of FAAH in rat RBL2H3 cells assessed as blockade of [3H]-anandamide uptake incubated for 15 mins prior to [3H]-anandamide addition measured after 10 mins by scintillation spectroscopic analysis
measurement type: IC50 (nM)
Your answer is read as nM, so omit the unit and give the number.

input: What measured IC50 goes with COc1nn(C(C)c2ccc(N(c3ccccc3)c3ccccc3)cc2)c(=O)o1 (racemic) ?
output: 11
